Biological target: T1, Recombinant MBP-mutCALR Type 1 fusion protein (human)
T1 construct: custom made at Cepter; also called recombinant mutCALR protein
Assay: SPR, IgG captured, 1:1 fit, Exp. 1
EXPERIMENTAL READOUT: koff

anti-mutCALR antibody clone 30 (antibody, human IgG1, lambda, V domains shown, human IgG1) VH: EVQLVQSGAEVKKPGASVKVSCKVSGYTLTELSMQWVRQAPGKGLEWMGGFDPDDGETMYAEKFQGRLTVTEDTSTDTVYMELRSLTSEDTALYFCATSPGYDFFDYWGQGTLVTVSS VL: SYVLTQPPSVSVAPGKTATITCGGNNIGTKSVHWYQQKPGQAPVLVVYDDSDRPSGIPERFSGSNSGNTATLTINRVEAGDEADYYCQVWDSSNDLLIFGGGTKLTVLG : 0.00295 s⁻¹
anti-mutCALR antibody clone 33 (antibody, human IgG1, lambda, V domains shown, human IgG1) VH: QVQLVQSGAEVKKPGATVKISCKVSGYSFTDYFIHWVQQAPGKGLAWVGLVDPEDGETIYAEKFQGRVTITADTSTDTAYMELSSLRSEDTAVYYCATPGGILTDPDAFDIWGQGTMVTVSS VL: QSALTQPRSVSGSPGQSVTISCAGTGSDVGGYNHVSWYQHHPGKAPKLMIYDVNKRPSGVPDRFSGSKSGNTASLTISGLQAEDEADYYCSSYIPSSTRWVFGGGTKLTVLG : 0.0126 s⁻¹
anti-mutCALR antibody clone 42 (antibody, human IgG1, lambda, V domains shown, human IgG1) VH: EVQLVQSGAEVKKPGASVKVSCKVSGYTLTELSMHWVRQAPGKGLEWMGLVDPEDGETIYAQKFQGRVTMTEDTSTDTAYMELSSLRSEDTAVYYCAREEWSGDGDDAFDIWGQGTMVTVSS VL: QSVLTQPPSVSAAPGQKVTISCSGSSSNIGSYSVSWYQQLPGTAPKLLIYDDNKRPSGIPDRFSGSNSGTSATLSITGLQTGDEADYYCGTWDSSLSAWVFGGGTKLTVLG : 0.00452 s⁻¹

Value source: patent US20230272055A1
